Listing of entries alongside the reported Kd.
assayed_target: T1, human CD20 antigen (human, UniProt P11836 1-297)
T1 construct: whole, on cells; also called CD20 on Raji cells; CD20/CHO cells
T1 sequence (looked up): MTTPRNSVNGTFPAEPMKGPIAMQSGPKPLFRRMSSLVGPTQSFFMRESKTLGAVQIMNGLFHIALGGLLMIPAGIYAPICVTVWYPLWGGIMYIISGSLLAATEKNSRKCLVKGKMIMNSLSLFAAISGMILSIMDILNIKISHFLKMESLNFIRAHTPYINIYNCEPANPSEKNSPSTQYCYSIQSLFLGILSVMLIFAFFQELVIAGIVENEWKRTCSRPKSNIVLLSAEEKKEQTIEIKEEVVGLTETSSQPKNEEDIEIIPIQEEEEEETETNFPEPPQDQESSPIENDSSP
assay_summary: Scatchard analysis on Raji cells, FITC secondary antibody fluorescence (Example 2)
State just the number; it will be interpreted in nM.

| binder | meas_value |
| --- | --- |
| 1K1791 murine anti CD20 monoclonal antibody (antibody, V domains shown, also called m1791) VH: QIQLVQSGPELKKPGETVKISCKASGYTFTNFGVNWVKQAPGKGLKWMGWINTYTGEPSYADDFKGRFAFSLEASANTAYLQINNLKNDDMSTYFCTRRTNYYGTSYYYAMDYWGQGTSVTVSS VL: STVMTQTPKFLLVSAGDRVTITCKASQSVSNDVAWYQQKPGQSPKVLIYFASNRYTGVPDRFTGSGYGTDFTFTINTVQAEDLAVYFCQQDYSSPLTFGAGTKLELK | 1.7 |
| 1K1228 murine anti CD20 monoclonal antibody (antibody, mouse IgG1, V domains shown, also called m1228) VH: QVQLQQPGAELVKPGASVKVSCKASGFTFTSYNLHWVKQTPGQGLVWIGAIYPGNGDTSYNQKFRGKATLTADISSSTAYMQLSSLTSEDSAVYYCARYYYGYDAMDYWGQGTSVTVSS VL: EIILTQSPTTMAASPGEKITITCSASSSISSYYLRWYQQKPGFSPKVLIYRTSNLASGVPARFSGSGSGTSYSLTIGTMEAEDVATYYCQQGNTVPLTFGSGTKLEIK | 0.26 |
| 1K1782 murine anti CD20 monoclonal antibody (antibody, V domains shown, also called m1782) VH: QVQLQQSGAELAKPGASVKMSCKASGYTFTSYWMHWVKQRPGQGLEWIGYITPSTGYTDYNKKFKDKATLTADRSSSTAYMHLSSLTSEDSAVYYCARSGPYFDVWGAGTTVTVSS VL: DILLTQSPAILFVSPGERVSLSCRASQNIGTSIHWYQQRTNGSPRLLIKYASESFSGIPSRFSGSGSGTDFTLSINSVESEDIADYYCQQSNSWPFTFGSGTKLEIK | 0.4 |

What does the data say about its Kd? Entry: 1K1736 murine anti CD20 monoclonal antibody (antibody, V domains shown) VH: QVQLQQPGAELVKPGASVKMSCKASGYTFTTYNLHWVKQTPGQGLEWIGGIYPGNGDTSYNQKFKVKATLTADKSSNTAYMQLSSLTSEDSAVYYCARWIYYGNYEGTLDYWGQGTSVTVSS VL: QIVLSQSPAILSSSPGEKVTMTCRASSSVSYMLWYQQKPGSSPEPWIYATSNLASGVPARFSGGGSGTSYSLTISRVEAEDAATYYCQQWTFNPPTFGGGTKLEIK
0.54

Same read-out for 1K1712 murine anti CD20 monoclonal antibody (antibody, V domains shown, also called m1712) VH: QVQLQQPGAELVKPGASVKMSCKASGFTFTSYNLHWVKQTPGQGLEWIGAIYPGSGDTSYNQQFKGKATLTADKSSNTAYMQLNSLTSEDSAVYCCARSAMISTGNWYFDYWGQGTTLTVSS VL: QIVLSQSPAILSASPGEKVTMTCRASSSVSYMDWYQQKPGSSPKPWIYATSNLASGVPARFSGSGSGTSYSLTISRVEAEDTATYYCQQWTFNPPTFGSGTKLEIK ?
0.84

From: patent US20090203886A1
